# Measured on: T1, orthogonal hCD122 receptor (hoRb), hCD122 with H133D and Y134F (human, UniProt P14784 27-550)
# T1 sequence: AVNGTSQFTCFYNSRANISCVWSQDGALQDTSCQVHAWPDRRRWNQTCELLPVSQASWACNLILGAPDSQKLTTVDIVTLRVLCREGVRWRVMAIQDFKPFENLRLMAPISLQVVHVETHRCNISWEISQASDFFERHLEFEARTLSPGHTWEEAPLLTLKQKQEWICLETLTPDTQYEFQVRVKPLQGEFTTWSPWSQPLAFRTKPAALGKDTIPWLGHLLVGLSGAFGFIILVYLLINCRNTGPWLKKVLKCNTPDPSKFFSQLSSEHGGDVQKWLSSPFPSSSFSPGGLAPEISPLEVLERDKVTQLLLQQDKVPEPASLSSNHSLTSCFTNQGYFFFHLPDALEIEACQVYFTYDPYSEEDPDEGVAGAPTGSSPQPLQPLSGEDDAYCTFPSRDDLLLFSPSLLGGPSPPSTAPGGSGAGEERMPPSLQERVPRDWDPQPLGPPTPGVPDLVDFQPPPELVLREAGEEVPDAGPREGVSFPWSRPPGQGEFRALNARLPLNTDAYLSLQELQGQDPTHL
# Experiment notes: cell-based or functional assay; also: reference of the scale not given here
Quantity measured: Relative Proliferation Fold Change 3F8 1:2 (fold)

Consider the worked cases shown below.
Binder	Output unit	Assay result
T3Q, SQVLKA (ligand) APQSSSTKKTQLQLSQLLVLLKAILNGINNYKNPKLTRMLTFKFYMPKKATELKHLQCLEEELKPLEEVLNLAQSKNFHLRPRDLISNINVIVLELKGSETTFMCEYADETATIVEFLNRWITFCQSIISTLT	fold	68.3
Q13W SQVLKA (ligand) APTSSSTKKTQLWLSQLLVLLKAILNGINNYKNPKLTRMLTFKFYMPKKATELKHLQCLEEELKPLEEVLNLAQSKNFHLRPRDLISNINVIVLELKGSETTFMCEYADETATIVEFLNRWITFCQSIISTLT	fold	148
T3C, SQVLKA (ligand) APCSSSTKKTQLQLSQLLVLLKAILNGINNYKNPKLTRMLTFKFYMPKKATELKHLQCLEEELKPLEEVLNLAQSKNFHLRPRDLISNINVIVLELKGSETTFMCEYADETATIVEFLNRWITFCQSIISTLT	fold	34.9

(a) H55Y, SQVLKA (ligand) APTSSSTKKTQLQLSQLLVLLKAILNGINNYKNPKLTRMLTFKFYMPKKATELKYLQCLEEELKPLEEVLNLAQSKNFHLRPRDLISNINVIVLELKGSETTFMCEYADETATIVEFLNRWITFCQSIISTLT
(b) SQVLKT (ligand) APTSSSTKKTQLQLSQLLVLLKTILNGINNYKNPKLTRMLTFKFYMPKKATELKHLQCLEEELKPLEEVLNLAQSKNFHLRPRDLISNINVIVLELKGSETTFMCEYADETATIVEFLNRWITFCQSIISTLT
(c) T3N, SQVLKA (ligand) APNSSSTKKTQLQLSQLLVLLKAILNGINNYKNPKLTRMLTFKFYMPKKATELKHLQCLEEELKPLEEVLNLAQSKNFHLRPRDLISNINVIVLELKGSETTFMCEYADETATIVEFLNRWITFCQSIISTLT
Exercise: Write the entries in order, lowest recorded Relative Proliferation Fold Change 3F8 1:2 first. Order the labels as requested and list them.
Key: c, b, a
